Target: recombinant human Meningioma Expressed Antigen 5 (MGEA5), also referred to as O-GlcNAcase (OGA) (Homo sapiens, UniProt O60502)
Construct: Full length OGA enzyme was purchased at OnGene (cat #TP322411); purchased OnGene (so in the source)
Sequence (O60502 1-916): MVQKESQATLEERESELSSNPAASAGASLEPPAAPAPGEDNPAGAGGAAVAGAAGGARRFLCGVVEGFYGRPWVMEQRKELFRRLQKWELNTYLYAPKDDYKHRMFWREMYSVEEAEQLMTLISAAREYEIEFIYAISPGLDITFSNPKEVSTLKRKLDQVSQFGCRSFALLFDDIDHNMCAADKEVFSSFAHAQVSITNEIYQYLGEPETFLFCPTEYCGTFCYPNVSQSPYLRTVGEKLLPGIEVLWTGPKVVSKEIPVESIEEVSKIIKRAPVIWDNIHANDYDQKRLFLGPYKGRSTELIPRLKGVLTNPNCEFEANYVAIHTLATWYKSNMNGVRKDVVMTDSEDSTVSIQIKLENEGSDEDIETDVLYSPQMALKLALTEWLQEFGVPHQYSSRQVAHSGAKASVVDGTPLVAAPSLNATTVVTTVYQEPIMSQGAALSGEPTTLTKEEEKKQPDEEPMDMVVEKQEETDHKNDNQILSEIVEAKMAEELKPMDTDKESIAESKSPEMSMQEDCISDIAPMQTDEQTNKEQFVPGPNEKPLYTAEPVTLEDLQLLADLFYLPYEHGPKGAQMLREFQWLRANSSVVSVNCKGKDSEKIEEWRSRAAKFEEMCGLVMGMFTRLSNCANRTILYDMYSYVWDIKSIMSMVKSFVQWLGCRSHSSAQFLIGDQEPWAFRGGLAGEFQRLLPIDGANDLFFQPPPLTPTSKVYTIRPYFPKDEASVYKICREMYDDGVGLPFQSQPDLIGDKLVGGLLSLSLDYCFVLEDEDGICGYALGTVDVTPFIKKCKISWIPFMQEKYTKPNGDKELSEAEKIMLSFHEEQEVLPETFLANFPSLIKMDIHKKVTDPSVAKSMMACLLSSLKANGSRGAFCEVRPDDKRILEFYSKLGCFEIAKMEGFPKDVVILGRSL
Assay: OGA biochemical assay (inhibition of FM-GlcNAc hydrolysis, fluorescence)
Conditions: read-out: Enzymatic hOGA, pIC50 (converted)
measure name: IC50 (nM)

1. Cc1cc(OC[C@@H]2CCCN([C@H](C)c3ccc4c(n3)OCCO4)C2)cc(C)n1 (relative stereo)
251
2. Cc1cc(OC[C@H]2CCCN([C@H](C)c3ccc4c(n3)OCCO4)C2)nc(C)n1 (mixture of isomers)
15.8
3. COc1cc(NC[C@@H]2CCCN(C(C)c3ccc4c(n3)OCCO4)C2)cc(C)n1 (single isomer, unassigned) [Product 29]
79.4
4. Cc1cc([C@H]2CCCN([C@H](C)c3ccc4c(n3)OCCO4)C2)cc(C)n1 (single isomer, unassigned)
7.94
5. Cc1cc(C[C@H]2CCCN(C(C)c3ccc4c(n3)OCCO4)C2)cc(OC(F)(F)F)n1 (mixture of isomers)
7.94
6. Cc1cc(CO[C@H]2CCCN(C(C)c3nc4c(cc3F)OCCO4)C2)cc(C)n1 (single isomer, unassigned) [Product 170]
3.16
7. Cc1cc(C[C@H]2CCCN(C(C)c3ccc4c(n3)OCCO4)C2)cc(C)n1 (mixture of isomers) [Product 44]
3.16
8. Cc1cc(OC2CCCN(C(C)c3cnc4c(c3)OCCN4)C2)cc(C)n1 (centres unmarked)
5.01
9. Cc1cc(C[C@H]2CCCN(C(C)c3ccc4c(n3)OCC(=O)N4)C2)cc(C)n1 (mixture of isomers) [Product 59]
126
10. Cc1cc(O[C@@H]2CCCN([C@@H](C)c3cnc4c(c3)OCCN4)C2)cc(C(F)(F)F)n1
79.4
11. COc1cc(NC[C@H]2CCCN(C(C)c3ccc4c(n3)OCCO4)C2)cc(C)n1 (single isomer, unassigned) [Product 26]
2.51
12. Cc1cc([C@H]2CCCN(C(C)c3ccc4c(n3)OCCO4)C2)cc(C)n1 (single isomer, unassigned)
10
13. COc1cc(OC[C@H]2CCCN([C@H](C)c3ccc4c(n3)OCCO4)C2)cc(C)n1 (single isomer, unassigned) [Product 183]
7.94
14. Cc1cc(NCC2CCCN(C(C)c3ccc4c(n3)OCCO4)C2)cc(C(F)(F)F)n1 (single isomer, unassigned) [Product 34]
200
